System: Hamigera avellanea IFO 7721
Protocol Summary: growth inhibition, paper disc method, agar plate
Type: cell-based
Test Parameters: IFO7721, 8 mm disc, 0.02 ml of a 100 μg/ml solution, pH 7.0, read-out: inhibitory zones
Readout Type: zone of inhibition at 100 µg/mL (mm)
Please respond with the number in mm and leave the unit unwritten.

Recorded results for 3 compounds are shown here.
1) COc1cc2cc(c1Cl)NC(=O)CC(OC(=O)CC(C)C)C1(C)OC1C(C)C1CC(O)(NC(=O)O1)C(OC)C=CC=C(C)C2 (stereo not shown) [C-15003PND-4]	36
2) COc1cc2cc(c1Cl)NC(=O)CC(OC(=O)C(C)C)C1(C)OC1C(C)C1CC(O)(NC(=O)O1)C(OC)C=CC=C(C)C2 (stereo not shown) [C-15003PND-3]	34
3) COc1cc2cc(c1Cl)NC(=O)CC(OC(C)=O)C1(C)OC1C(C)C1CC(O)(NC(=O)O1)C(OC)C=CC=C(C)C2 (stereo not shown) [C-15003PND-1]	28

Next item in the queue.
Give its zone of inhibition at 100 µg/mL value. Item: CCC(=O)OC1CC(=O)Nc2cc(cc(OC)c2Cl)CC(C)=CC=CC(OC)C2(O)CC(OC(=O)N2)C(C)C2OC12C (stereo not shown) [C-15003PND-2] 30
